Test system: NCI-H460
assayNotes: NCI tumour cell line growth inhibition, 48 h
The source made the active and inactive calls. Rule as the data show it: active = GI50 up to about 1.1 µM and inactive = higher.
I would appreciate it if you answered using one of these outcomes: yes for active, no for inactive

Prompt: Which outcome did this test record for the compound COc1ccc(C2COc3c(ccc(O)c3C)C2)cc1OC (configuration not stated) ?
Response: no

Prompt: Hello, I am checking results. What call was entered for `COc1ccc2nc3n(c2c1)CCc1cc(OC)c(OC)cc1-3` ?
Response: no

Prompt: Hi, sorry to bother you, what did the test record for `Nn1c(=S)[nH]nc(/C=C/c2c(O)ccc3ccccc23)c1=O` ?
Response: no

###

System: RXF 393
assayNotes: NCI tumour cell line growth inhibition, 48 h
Calls of active or inactive are those of the source. Rule as the data show it: active = GI50 up to about 1.1 µM and inactive = higher. Where a SMILES comes first, the peptide text is derived from it. [ ]: non-standard residue; d: D form. The star is where a group is joined. Chg = N[CH](C(=O)O)C1CCCCC1; Cbz = O=C(OCc1ccccc1)*; OBn = c1ccc(CO*)cc1
Hello, when you answer, please use one of the following outcomes: Y (active), N (inactive)

Observe how each entry below is paired with its result.
INSERT INTO assay_data (compound, category) VALUES
  ('O=C(O)CSc1nnc(CCCCCCCCc2nnc(SCC(=O)O)o2)o1', 'N'),
  ('COC(=O)C(NC(=O)C(CC(=O)OCc1ccccc1)NC(=O)OCc1ccccc1)C1CCCCC1 (stereo not given) (Cbz-Asp(OBn)-[Chg]-OMe; configuration not given here)', 'N'),
  ('Cc1nc2c(s/c(=N\N)n2-c2ccccc2)c(=O)[nH]1', 'N'),
  ('CSc1nc2c(c(=O)[nH]1)N=C(c1ccccc1)CC(c1ccccc1)N2 (stereo not given)', 'N'),
  ('O=C1CCC(NC(=O)c2ccccc2)C(=O)N1 (stereo not given)', 'N'),
  ('N#C/C(=C\c1cc(F)cc(F)c1)c1ccccn1', 'N'),
  ('COc1cc2ccccc2c2cc([N+](=O)[O-])oc12', 'Y'),
  ('CSC(=S)Nc1cc(C)ccn1', 'N'),
  ('CC(=O)C1C(=O)C(=O)N(c2ccc([N+](=O)[O-])cc2)C1=O (stereo not given)', 'N');

Shifting focus to the compound that follows.
Prompt: In this assay, the call recorded for CC(=O)NC(Cc1ccc(OP(=O)(OCc2ccc([N+](=O)[O-])o2)N(C)CCCCCl)cc1)C(=O)NC(C)c1ccc(OCC2CCCCC2)c(C(N)=O)c1 (stereo not given) was what?
Response: N
